Give melting point for every item shown.

Prompt: Report melting point, nothing else, for this compound: COc1cc2c(cc1OC)CCC(/C=C/C(=N)NO)=C2
Completion: 199 to 203 °C

Prompt: Report melting point, nothing else, for this compound: CC(=O)C1CCC(=O)N1C(C)=O (stereo unspecified)
Completion: 62 °C

Prompt: Report melting point, nothing else, for this compound: O=C1[C@H]2CCC[C@H]2Nc2cc([N+](=O)[O-])ccc2N1Cc1ccccc1 (relative stereo)
Completion: 174 to 176 °C

Prompt: Report melting point, nothing else, for this compound: N#Cc1sccc1[N+](=O)[O-]
Completion: 87 to 88 °C

Prompt: Report melting point, nothing else, for this compound: O=C(CC1C2CC3CC(C2)CC1C3)Nc1cccc2[nH]ccc12 (stereo unspecified)
Completion: 206 to 208 °C

Prompt: Report melting point, nothing else, for this compound: COc1cc2nc3ccccc3sc-2c(OC)c1=O
Completion: 193 °C

Prompt: Report melting point, nothing else, for this compound: CCCC1CC(O)c2cc(S(N)(=O)=O)sc2S1 (stereo unspecified)
Completion: 156 to 157 °C

Prompt: Report melting point, nothing else, for this compound: NS(=O)(=O)c1ccc(N2C(=O)CN(c3ccccc3)C2=O)cc1
Completion: 291 to 296 °C

Prompt: Report melting point, nothing else, for this compound: CC(Oc1ccc([N+](=O)[O-])cc1)c1nnc(N=C=O)s1 (stereo unspecified)
Completion: 215 to 221 °C

Prompt: Report melting point, nothing else, for this compound: Cc1[nH]n(C2CCCC2)c2nc(C3CCN(C(=O)C(F)(F)F)CC3)nc(=O)c1-2
Completion: 219 to 221 °C

Prompt: Report melting point, nothing else, for this compound: CC(C)C(=O)N(Cc1ccccc1)c1nnn(Cc2ccccc2)n1
Completion: 68 °C

Prompt: Report melting point, nothing else, for this compound: COc1ccc(-c2nc(N)sc2-c2ccnc(N)c2)cc1
Completion: 251 to 254 °C

Prompt: Report melting point, nothing else, for this compound: CCOC(=O)C1=Cc2cc(Cl)c(Oc3ccc(OC)cc3)cc2OC1C(F)(F)F (stereo unspecified)
Completion: 116 to 117 °C

Prompt: Report melting point, nothing else, for this compound: N#Cc1nn(-c2c(Cl)cc(C(F)(F)F)cc2Cl)cc1C1CC(=O)C1(Cl)Cl (stereo unspecified)
Completion: 118 to 120 °C

Prompt: Report melting point, nothing else, for this compound: CCOC(=O)c1ncn2c1[C@@H]1CCCN1C(=O)c1c-2ccc(F)c1F
Completion: 199 to 200 °C

Prompt: Report melting point, nothing else, for this compound: NC(CCN(CCC(N)=NO)CCN(CCC(N)=NO)CCC(N)=NO)=NO
Completion: 191 to 192 °C

Prompt: Report melting point, nothing else, for this compound: NC1=Nc2ccc([N+](=O)[O-])cc2C(c2ccccc2Cl)=NC1
Completion: 222 to 224 °C

Prompt: Report melting point, nothing else, for this compound: Sc1nsnc1C12CN3CC1C2C3
Completion: 205 to 207 °C

Prompt: Report melting point, nothing else, for this compound: COc1nc(C)nc(NC(=O)NS(=O)(=O)c2ccccc2C(=O)Nc2nc[nH]n2)n1
Completion: 176 to 179 °C

Prompt: Report melting point, nothing else, for this compound: COC1C(NC(=O)C(F)(F)F)CC(O)OC1C (stereo unspecified)
Completion: 185 °C

Prompt: Report melting point, nothing else, for this compound: CN(Cc1ccc(NC(=O)C2=Cc3cc(-c4ccc(Cl)c(Cl)c4)ccc3S(=O)(=O)CC2)cc1)C1CCOCC1
Completion: 235 to 237 °C
